B1: FEM1B (parent)
chain: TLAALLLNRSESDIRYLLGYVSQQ

Variants of: B1
Assay: protein stability index of a GFP-peptide fusion (GPS, HEK-293T) (PSI 1-6); higher = more stable;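 also: lentivirally expressed fusions sorted by FACS into six bins by GFP to DsRed ratio, PSI derived from sequencing read proportions per bin multiplied by bin number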
Details: c terminus: a fixed tail appended
MEASURED_ATTRIBUTE: protein stability index
// return just the number, without any unit appended

Some variants with known protein stability index results, for comparison:
| MUTANT_CODE | MEASURED_ATTRIBUTE | MEASURED_VALUE |
| --- | --- | --- |
| I14K | protein stability index | 1.96 |
| L2E | protein stability index | 2.01 |

Query: Entry S22D : reported protein stability index = ?
Result: 2.48
